Target: Eukaryotic translation initiation factor 4E (Oryctolagus cuniculus)
Experiment: Inhibition of eukaryotic initiation factor 4E in micrococcal nuclease-pretreated rabbit reticulocyte lysate assessed as inhibition of m7,3'-O-GpppG-capped 5'UTRbetaglob-LUC mRNA translation by luciferase-based luminometry
value type: IC50 (µM)
Expressed in µM, but write only the number.

(Q) Bench note: what IC50 did C[n+]1cn(C2OC(COP(=O)(S)OP(=O)(O)OP(=O)(O)O)C(O)C2O)c2nc(N)[n-]c(=O)c21 (stereo unspecified) show?
(A) 1.44

* * *

Molecular target: Eukaryotic translation initiation factor 4E (Oryctolagus cuniculus, UniProt P29338)
Sequence (P29338 whole entry): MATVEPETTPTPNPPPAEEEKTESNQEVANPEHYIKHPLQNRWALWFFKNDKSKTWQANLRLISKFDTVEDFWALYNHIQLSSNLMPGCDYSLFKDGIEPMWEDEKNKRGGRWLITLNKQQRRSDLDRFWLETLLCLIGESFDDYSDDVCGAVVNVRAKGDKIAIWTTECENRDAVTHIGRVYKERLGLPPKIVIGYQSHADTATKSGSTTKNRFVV
Experiment: Inhibition of eukaryotic initiation factor 4E in micrococcal nuclease-pretreated rabbit reticulocyte lysate assessed as inhibition of m7,3'-O-GpppG-capped 5'UTRbetaglob-LUC mRNA translation treated 60 mins before mRNA addition by luciferase-based luminometry
value type: pIC50
For clarity, pIC50 is expressed as the negative log10 of concentration in mol/L.

(Q) Bench note: what pIC50 did C[n+]1cn(C2OC(COP(=O)(S)OP(=O)(O)OP(=O)(O)O)C(O)C2O)c2nc(N)[n-]c(=O)c21 (stereo unspecified) show?
(A) 5.89
